# ASSAY_SYSTEM: human LAT2 (Homo sapiens, UniProt Q9UHI5)
# Sequence (Q9UHI5 1-535): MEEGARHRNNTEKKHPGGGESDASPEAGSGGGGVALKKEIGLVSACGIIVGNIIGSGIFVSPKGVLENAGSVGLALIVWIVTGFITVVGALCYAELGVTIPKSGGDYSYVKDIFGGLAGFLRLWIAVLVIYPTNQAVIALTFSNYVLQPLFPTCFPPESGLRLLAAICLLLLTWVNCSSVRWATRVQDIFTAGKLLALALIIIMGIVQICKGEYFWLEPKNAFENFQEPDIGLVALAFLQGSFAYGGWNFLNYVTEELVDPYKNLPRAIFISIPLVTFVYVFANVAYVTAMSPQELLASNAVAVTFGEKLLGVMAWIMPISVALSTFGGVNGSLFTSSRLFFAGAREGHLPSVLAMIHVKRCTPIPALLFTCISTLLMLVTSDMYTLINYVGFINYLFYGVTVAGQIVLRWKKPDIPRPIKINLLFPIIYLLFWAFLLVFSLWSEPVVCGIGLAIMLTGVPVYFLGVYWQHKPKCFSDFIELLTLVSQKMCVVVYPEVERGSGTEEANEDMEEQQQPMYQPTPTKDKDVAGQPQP
# ASSAY_PROTOCOL: [3H]L-leucine radioligand transport assay, P. pastoris cells expressing LAT2
# CONDITION_PARAMETERS: P. pastoris KM71H cells, OD600 0.75, 0.1 µM [3H]L-leucine, 10 min uptake, 25°C
Recorded measurements of IC50, one per entry

{"MOLECULE": "NC1(C(=O)O)CC2CCC1C2 (stereo not shown) [BCH]", "ASSAY_SYSTEM": "human LAT2 (Homo sapiens, UniProt Q9UHI5)", "IC50": "184 µM"}
{"MOLECULE": "Nc1cc(COc2c(Cl)cc(C[C@H](N)C(=O)O)cc2Cl)c2oc(-c3ccccc3)nc2c1 [JPH203]", "ASSAY_SYSTEM": "human LAT2 (Homo sapiens, UniProt Q9UHI5)", "IC50": "1.7 µM"}
{"MOLECULE": "NC(Cc1cc(I)c(Oc2cc(I)c(O)c(I)c2)c(I)c1)C(=O)O (stereo not shown) [T4, thyroxine]", "ASSAY_SYSTEM": "human LAT2 (Homo sapiens, UniProt Q9UHI5)", "IC50": "25 µM"}

Let us examine a further case.
Suppose we examine the molecule CC(C)C[C@H](N)C(=O)O [L-leucine] ; what IC50 value has been reported?
39 µM

---

# ASSAY_SYSTEM: human 4F2hc-LAT2 (Homo sapiens, UniProt Q9UHI5)
# Construct: expressed in transfected cells; host or cells: Pichia pastoris KM71H (pPICZB vector)
# ASSAY_PROTOCOL: [3H]L-leucine radioligand transport assay, P. pastoris cells expressing 4F2hc-LAT2
# Type: cell-based
# CONDITION_PARAMETERS: P. pastoris KM71H cells, OD600 0.75, 0.1 µM [3H]L-leucine, 10 min uptake, 25°C; read-out: IC50 of L-leucine uptake, 4F2hc-LAT2 (this work)
Recorded measurements of IC50, one per entry
Write the number in µM without appending the unit.

{"COMPOUND": "Nc1cc(COc2c(Cl)cc(C[C@H](N)C(=O)O)cc2Cl)c2oc(-c3ccccc3)nc2c1 [JPH203]", "UOM": "µM", "MEASURED_NUMBER": 1.5}
{"COMPOUND": "NC1(C(=O)O)CC2CCC1C2 (stereo not shown) [BCH]", "UOM": "µM", "MEASURED_NUMBER": 195}
{"COMPOUND": "NC(Cc1cc(I)c(Oc2cc(I)c(O)c(I)c2)c(I)c1)C(=O)O (stereo not shown) [T4, thyroxine]", "UOM": "µM", "MEASURED_NUMBER": 42}

Let us examine a further case.
Suppose we examine the compound CC(C)C[C@H](N)C(=O)O [L-leucine] ; what IC50 value has been reported?
210

---

Recorded measurements of IC50, one per entry
# ASSAY_SYSTEM: human 4F2hc-LAT1 (Homo sapiens)
# Construct: expressed in transfected cells; host or cells: Pichia pastoris KM71H (pPICZB vector)
# Sequence (Q01650 whole entry): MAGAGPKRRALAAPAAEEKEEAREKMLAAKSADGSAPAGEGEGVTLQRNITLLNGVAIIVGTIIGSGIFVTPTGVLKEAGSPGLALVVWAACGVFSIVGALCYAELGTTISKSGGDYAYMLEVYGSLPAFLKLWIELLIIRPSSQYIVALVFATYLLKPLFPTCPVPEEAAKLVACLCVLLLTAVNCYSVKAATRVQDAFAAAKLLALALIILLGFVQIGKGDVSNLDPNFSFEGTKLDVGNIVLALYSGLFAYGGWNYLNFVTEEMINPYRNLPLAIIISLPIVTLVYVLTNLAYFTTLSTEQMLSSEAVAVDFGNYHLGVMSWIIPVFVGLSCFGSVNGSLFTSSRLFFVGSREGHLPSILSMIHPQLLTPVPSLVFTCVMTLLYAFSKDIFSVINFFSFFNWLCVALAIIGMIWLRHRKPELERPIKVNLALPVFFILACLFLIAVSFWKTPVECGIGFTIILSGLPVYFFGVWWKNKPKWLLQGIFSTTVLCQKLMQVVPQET
# Sequence (P08195 102-630 partner): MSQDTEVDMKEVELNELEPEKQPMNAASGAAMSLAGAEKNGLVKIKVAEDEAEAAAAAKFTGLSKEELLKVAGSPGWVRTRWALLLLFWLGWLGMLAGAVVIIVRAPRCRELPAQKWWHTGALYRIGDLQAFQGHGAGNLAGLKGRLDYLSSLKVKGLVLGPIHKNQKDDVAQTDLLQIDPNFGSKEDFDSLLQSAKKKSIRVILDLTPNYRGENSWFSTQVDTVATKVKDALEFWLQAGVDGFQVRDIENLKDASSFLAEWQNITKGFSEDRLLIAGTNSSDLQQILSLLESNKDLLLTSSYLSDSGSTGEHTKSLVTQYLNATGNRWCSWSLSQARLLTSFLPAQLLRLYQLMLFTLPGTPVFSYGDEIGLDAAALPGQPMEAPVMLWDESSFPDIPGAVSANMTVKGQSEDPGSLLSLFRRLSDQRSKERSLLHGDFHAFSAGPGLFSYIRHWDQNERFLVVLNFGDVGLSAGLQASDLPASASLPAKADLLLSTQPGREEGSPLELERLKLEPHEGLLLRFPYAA
# ASSAY_PROTOCOL: [3H]L-leucine radioligand transport assay, P. pastoris cells expressing 4F2hc-LAT1
# Assay type: cell-based
# CONDITION_PARAMETERS: P. pastoris KM71H cells, OD600 0.75, 0.1 µM [3H]L-leucine, 10 min uptake, 25°C; read-out: IC50 of L-leucine uptake, 4F2hc-LAT1 (this work)
Write the number in µM without appending the unit.

# example entries with known answers
{"MOLECULE": "Nc1cc(COc2c(Cl)cc(C[C@H](N)C(=O)O)cc2Cl)c2oc(-c3ccccc3)nc2c1", "ASSAY_SYSTEM": "human 4F2hc-LAT1 (Homo sapiens)", "IC50 [µM]": 0.197}
{"MOLECULE": "NC1(C(=O)O)CC2CCC1C2 (stereo not drawn)", "ASSAY_SYSTEM": "human 4F2hc-LAT1 (Homo sapiens)", "IC50 [µM]": 72}

Suppose we examine the molecule CC(C)C[C@H](N)C(=O)O ; what IC50 value has been reported?
22

---

// each record: one item and its pIC50 for human LAT1 (Homo sapiens, UniProt Q01650)
Here pIC50 is given on a logarithmic scale as minus log10 of the concentration in mol/L.

# example entries with known answers
{"MOLECULE": "NC1(C(=O)O)CC2CCC1C2 (stereo not shown) [BCH]", "pIC50": 4.11}
{"MOLECULE": "NC(Cc1cc(I)c(Oc2cc(I)c(O)c(I)c2)c(I)c1)C(=O)O (stereo not shown) [T4, thyroxine]", "pIC50": 5.10}
{"MOLECULE": "Nc1cc(COc2c(Cl)cc(C[C@H](N)C(=O)O)cc2Cl)c2oc(-c3ccccc3)nc2c1 [JPH203]", "pIC50": 6.46}

Let us examine a further case.
Give recorded pIC50 with human LAT1 (Homo sapiens, UniProt Q01650) for the following molecule: CC(C)C[C@H](N)C(=O)O [L-leucine]
Sequence (Q01650 whole entry): as the sequence (Q01650 whole entry) above
5.05

Reference source for all entries: paper PMC8193492
